Assay system: T1, GFP-9S library array, motif 4 ND N98R;D124R (synthetic construct, N98R;D124R)
T1 chain: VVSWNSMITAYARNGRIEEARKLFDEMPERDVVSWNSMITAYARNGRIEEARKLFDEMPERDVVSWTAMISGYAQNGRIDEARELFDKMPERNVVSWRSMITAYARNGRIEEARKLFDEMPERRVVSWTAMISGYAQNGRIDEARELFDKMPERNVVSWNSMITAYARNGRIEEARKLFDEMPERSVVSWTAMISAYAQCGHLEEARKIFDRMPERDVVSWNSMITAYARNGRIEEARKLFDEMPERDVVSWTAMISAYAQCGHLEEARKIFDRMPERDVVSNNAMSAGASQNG
Test method notes: high-throughput RNA pulldown from lysate on Ni-NTA beads; HRP: 50 mM Tris pH 8, 150 mM NaCl, 1 mM beta-mercaptoethanol, 50 ug/ml BSA, 3 ug/ml yeast RNA, 0.5% heparin; ITC and FP: Tris pH 8, 200 mM KCl, 5% glycerol; MST: 50 mM Tris pH 8, 200 mM NaCl, 1 mM DTT, BSA, heparin, 0.05% Tween 20
Assay context: tags: N-terminal His-eGFP; label: 5' IRDye 800CW
Can you tell me pKd for the items I'm about to list?
// returns pKd (minus log10 of molar concentration), number only

Kindly note the recorded pKd for AUUAAACGUGA (ssRNA) [IR-rpoA-A] , which is 7.09

pKd reading for AUUAUACGUGA (ssRNA) [IR-rpoA-U] : 7.01
